Organism: Rattus norvegicus
Test: Open TG-GATES - Regimen: Single
Type: toxicity, organism-based, Sprague-Dawley
Parameters: regimen Single, gender Male, age 6 weeks
Conditions: in vivo, po, 0 mg/kg, 3 h, tissue Blood, route gavage, dose level Control
Exercise: state measured MCV for each of the compounds provided.
One number for each entry, in fL.

Past entries and their recorded results:
| compound | reported value |
| --- | --- |
| COC1=CC(=O)C[C@@H](C)[C@]12Oc1c(Cl)c(OC)cc(OC)c1C2=O [GRISEOFULVIN] | 63.5 |
| C[C@@H]1C[C@H]2[C@@H]3CCC4=CC(=O)C=C[C@]4(C)[C@@]3(F)[C@@H](O)C[C@]2(C)[C@@]1(O)C(=O)CO [DEXAMETHASONE] | 64.5 |
| CN(C)CCN(Cc1cccs1)c1ccccn1 | 64.2 |

Give MCV for each listed item.
1. NNC(=O)c1ccncc1 [ISONIAZID]
2. Cc1ccc(C)c(OCCCC(C)(C)C(=O)O)c1 [GEMFIBROZIL]

Result:
[60.3, 64.7]

src = ChEMBL document CHEMBL3885861
